# maps each entry to its koff
# target: T1, GDF11 (UniProt O95390 299-407)
# T1 construct: also called BMP11
# T1 sequence (looked up): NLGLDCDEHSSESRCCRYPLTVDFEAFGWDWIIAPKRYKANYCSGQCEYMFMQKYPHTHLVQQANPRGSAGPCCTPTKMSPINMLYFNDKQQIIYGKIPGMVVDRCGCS
# test protocol: SPR (Biacore); receptor-Fc captured by anti-hFc antibody, ligand injected
Your answer should be a number followed by the unit of measure.

ActRIIB(A24N 20-134)-hFc (Fc fusion) GRGENETRECIYYNANWELERTNQSGLERCEGEQDKRLHCYASWRNSSGTIELVKKGCWLDDFNCYDRQECVATEENPQVYFCCCEGNFCNERFTHLPEAGGPEVTYEPPPTAPTGGGTHTCPPCPAPELLGGPSVFLFPPKPKDTLMISRTPEVTCVVVDVSHEDPEVKFNWYVDGVEVHNAKTKPREEQYNSTYRVVSVLTVLHQDWLNGKEYKCKVSNKALPVPIEKTISKAKGQPREPQVYTLPPSREEMTKNQVSLTCLVKGFYPSDIAVEWESNGQPENNYKTTPPVLDSDGSFFLYSKLTVDKSRWQQGNVFSCSVMHEALHNHYTQKSLSLSPGK    6.35e-05 s⁻¹

Moving on to the next binder.
Quick one: koff of ActRIIB(R64K 20-134)-hFc (Fc fusion) GRGEAETRECIYYNANWELERTNQSGLERCEGEQDKRLHCYASWKNSSGTIELVKKGCWLDDFNCYDRQECVATEENPQVYFCCCEGNFCNERFTHLPEAGGPEVTYEPPPTAPTGGGTHTCPPCPAPELLGGPSVFLFPPKPKDTLMISRTPEVTCVVVDVSHEDPEVKFNWYVDGVEVHNAKTKPREEQYNSTYRVVSVLTVLHQDWLNGKEYKCKVSNKALPVPIEKTISKAKGQPREPQVYTLPPSREEMTKNQVSLTCLVKGFYPSDIAVEWESNGQPENNYKTTPPVLDSDGSFFLYSKLTVDKSRWQQGNVFSCSVMHEALHNHYTQKSLSLSPGK ? 2.41e-05 s⁻¹
